- system: T1, human CD71 extracellular domain (human, UniProt P02786 89-760, biotinylated)
- T1 construct: also called hCD71; CD71-ECD
- T1 sequence (P02786 89-760): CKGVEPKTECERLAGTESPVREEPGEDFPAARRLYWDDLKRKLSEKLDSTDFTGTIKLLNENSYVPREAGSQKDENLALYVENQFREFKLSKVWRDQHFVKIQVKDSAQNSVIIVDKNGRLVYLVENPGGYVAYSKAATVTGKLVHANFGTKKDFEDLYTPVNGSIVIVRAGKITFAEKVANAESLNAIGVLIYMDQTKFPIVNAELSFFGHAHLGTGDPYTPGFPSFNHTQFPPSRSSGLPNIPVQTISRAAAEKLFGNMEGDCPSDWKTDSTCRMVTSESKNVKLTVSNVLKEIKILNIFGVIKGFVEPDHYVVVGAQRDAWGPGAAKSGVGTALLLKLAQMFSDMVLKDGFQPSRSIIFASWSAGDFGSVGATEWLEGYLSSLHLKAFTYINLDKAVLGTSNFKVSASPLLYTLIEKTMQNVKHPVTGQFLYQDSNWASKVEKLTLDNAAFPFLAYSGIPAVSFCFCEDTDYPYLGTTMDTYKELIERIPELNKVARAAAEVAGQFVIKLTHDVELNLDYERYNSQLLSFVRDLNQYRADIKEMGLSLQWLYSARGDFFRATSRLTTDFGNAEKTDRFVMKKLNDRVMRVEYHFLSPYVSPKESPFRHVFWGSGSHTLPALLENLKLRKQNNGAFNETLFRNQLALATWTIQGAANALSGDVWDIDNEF
- method-notes: primary ELISA; note: test concentration or dose not given here
Please respond with reported RLU for every item in the list.
Your reply should be a number followed by the unit it is expressed in.

Req: Query RLU for CD71-binding FN3 domain of SEQ ID NO: 539 (designed binder) MLPAPKNLVVSRVTEDSARLSWTAPDAAFDSFFIGYLEPQPPGEAIHLFVPGSERSYDLTGLKPGTEYNVTIQGVKGGFPSDPLHAAFTT
Resp: 4.94e+06 RLU

Req: # return recorded RLU for input CD71-binding FN3 domain of SEQ ID NO: 502 (designed binder) MLPAPKNLVVSRVTEDSARLSWTAPDAAFDSFFIGYLEPQPPGEAIGLHVPGSERSYDLTGLKPGTEYNVTIQGVKGGFPSIPLEAKFTT
Resp: 1.49e+06 RLU

Req: Could you please provide reported RLU for CD71-binding FN3 domain of SEQ ID NO: 518 (designed binder) MLPAPKNLVVSRVTEDSARLSWTAPDAAFDSFFIGYLEPQPPGEAISLWVPGSERSYDLTGLKPGTEYNVTIQGVKGGFPSDPLGAHFTT ? Thanks!
Resp: 1.85e+06 RLU

Req: Give the value of RLU reported for the following: CD71-binding FN3 domain of SEQ ID NO: 537 (designed binder) MLPAPKNLVVSRVTEDSARLSWTAPDAAFDSFEIGYFENLYLGEAIVLTVPGSERSYDLTGLKPGTEYWVQIGGVKGGNWSAPLSAIFTT
Resp: 2.42e+06 RLU

Req: Read off the recorded RLU for CD71-binding FN3 domain of SEQ ID NO: 528 (designed binder) MLPAPKNLVVSRVTEDSARLSWTAPDAAFDSFFIGYLEPQPPGEAITLLVPGSERSYDLTGLKPGTEYNVTIQGVKGGFPSIPLIAIFTT
Resp: 5.18e+06 RLU

Req: For the binder CD71-binding FN3 domain of SEQ ID NO: 474 (designed binder) MLPAPKNLVVSRVTEDSARLSWTAPDAAFDSFFIGYLEPQPPGEAIGLAVPGSERSYDLTGLKPGTEYNVTIQGVKGGFPSEPLIADFTT , give its reported RLU.
Resp: 3.04e+06 RLU

Req: Supply recorded RLU for CD71-binding FN3 domain of SEQ ID NO: 508 (designed binder) MLPAPKNLVVSRVTEDSARLSWTAPDAAFDSFFIGYLEPQPPGEAITLSVPGSERSYDLTGLKPGTEYNVTIQGVKGGFPSEPLIAIFTT here.
Resp: 4.22e+06 RLU

Req: For the binder CD71-binding FN3 domain of SEQ ID NO: 532 (designed binder) MLPAPKNLVVSRVTEDSARLSWTAPDAAFDSFDINYDELSGEGEAIALFVPGSERSYDLTGLKPGTEYWVSIGGVKGGRFSEPLYARFTT , give its reported RLU.
Resp: 1.45e+06 RLU

Req: Fill in reported RLU for this entry: CD71-binding FN3 domain of SEQ ID NO: 541 (designed binder) MLPAPKNLVVSRVTEDSARLSWTAPDAAFDSFFIGYLEPQPPGEAIDLWVPGSERSYDLTGLKPGTEYNVTIQGVKGGFPSMPLDAYFTT
Resp: 1.79e+06 RLU
